# Protocol notes: Competitive inhibition of Staphylococcus aureus replicative DNA helicase using DNA as substrate by Dixon plot analysis
Test readout: Ki (nM)
# unit: nM | format: bare number

Ask | Supply measured Ki of "CNc1nc2ccc3nc(NC(=O)c4cccc(OC)c4)sc3c2s1" in your reply.
Reply | 2000

###

# Protocol notes: Inhibition of Bacillus anthracis replicative DNA helicase using Hel-5'FAM:Hel-3'BHQ as substrate assessed as DNA duplex strand unwinding by FRET assay
# Lookup of reported pIC50 keyed by entry
FYI, pIC50 means -log10 of a concentration in mol per litre.

Ask | Quickly give me recorded pIC50 for "COc1cc(OC)cc(C(=O)Nc2nc3ccc4nc(SC)sc4c3s2)c1"
Reply | 5.77

Ask | Fill in reported pIC50 for this entry: "COc1cc(C(=O)Nc2nc3ccc4nc(N5CCN(C)CC5)sc4c3s2)cc(OC)c1OC"
Reply | 6.70

Ask | Please report pIC50 for the following molecule: "COc1cccc(C(=O)Nc2nc3ccc4nc(NC5CCCCC5)sc4c3s2)c1"
Reply | 4.05

Ask | Give pIC50 for the following molecule: "COc1cc(C(=O)Nc2nc3ccc4nc(NCCO)sc4c3s2)cc(OC)c1OC"
Reply | 6.70

Ask | State its pIC50: "CSc1nc2ccc3nc(NC(=O)c4cccc(F)c4)sc3c2s1"
Reply | 5.48

Ask | Give the value of pIC50 reported for the following: "CCOc1ccc(C(=O)Nc2nc3ccc4nc(SC)sc4c3s2)cc1"
Reply | 5.16

Ask | Provide one value: measured pIC50 of "CSc1nc2ccc3nc(NC(=O)c4cccc([N+](=O)[O-])c4)sc3c2s1"
Reply | 5.55

Ask | Answer with reported pIC50 of "COc1cccc(C(=O)Nc2nc3ccc4nc(N5CCOCC5)sc4c3s2)c1"
Reply | 5.64

Ask | Complete the entry with pIC50 for "CSc1nc2ccc3nc(NC(=O)c4ccccc4C)sc3c2s1"
Reply | 5.18

###

# Protocol notes: Inhibition of Bacillus anthracis replicative DNA helicase using Hel-5'FAM:Hel-3'BHQ as substrate assessed as DNA duplex strand unwinding by FRET assay
pIC50: −log10 of the molar value.
Categories are assigned from the measured pIC50 using these intervals: class 0 (below 5), class 1 (5 to below 6), class 2 (6 or more)

# count of solved cases: 4
* CSc1nc2ccc3nc(NC(=O)c4ccccc4Oc4ccccc4)sc3c2s1 | class 0
* CSc1nc2ccc3nc(NC(=O)c4ccccc4Cl)sc3c2s1 | class 0
* CSc1nc2ccc3nc(NC(=O)c4ccc(C)c(C)c4)sc3c2s1 | class 1
* CSc1nc2ccc3nc(NC(=O)c4cccc(Br)c4)sc3c2s1 | class 1

Ask | Class (by measured pIC50) for "CSc1nc2ccc3nc(NC(=O)c4ccc(OC(C)C)cc4)sc3c2s1"
Reply | class 0

Ask | Note: place this molecule into its band. Item: "CSc1nc2ccc3nc(NC(=O)c4c(F)cccc4F)sc3c2s1"
Reply | class 0

Ask | Looking at "CSc1nc2ccc3nc(NC(=O)c4ccco4)sc3c2s1" , which class would you pick?
Reply | class 0

Ask | Place this molecule in its band: "CNc1nc2ccc3nc(NC(=O)c4cccc(OC)c4)sc3c2s1"
Reply | class 2

Ask | Which category fits this record: "CSc1nc2ccc3nc(NC(=O)c4ccccc4F)sc3c2s1"
Reply | class 0

Ask | For the record "COc1ccc(C(=O)Nc2nc3ccc4nc(SC)sc4c3s2)cc1OC" , report the class its pIC50 corresponds to.
Reply | class 1

Ask | Which of the defined bands does the recorded pIC50 of "COc1cccc(C(=O)Nc2nc3ccc4nc(NC(C)C)sc4c3s2)c1" sit within?
Reply | class 0

###

# Test system: Bacillus anthracis
# Protocol notes: Antibacterial activity against Bacillus anthracis Sterne assessed as inhibition of incorporation of radiolabeled precursors into DNA
# Assay type: functional, organism-based
Test readout: pIC50
Would you please state pIC50, meaning minus log10 of the concentration in mol/L, as a bare number?

Ask | Quickly give me recorded pIC50 for "COc1cc(C(=O)Nc2nc3ccc4nc(N5CCN(C)CC5)sc4c3s2)cc(OC)c1OC"
Reply | 5.00

Ask | Output measured pIC50 for this item: "COc1cc(C(=O)Nc2nc3ccc4nc(NCCO)sc4c3s2)cc(OC)c1OC"
Reply | 4.77

###

# Protocol notes: Inhibition of Bacillus anthracis replicative DNA helicase using Hel-5'FAM:Hel-3'BHQ as substrate assessed as DNA duplex strand unwinding by FRET assay
# note: boundary value 5 µM maps to NOT MET; IC50 below it maps to MET

Take a look at these entries with their results.
- CSc1nc2ccc3nc(NC(=O)c4cccc(Cl)c4)sc3c2s1: NOT MET
- COc1cccc(C(=O)Nc2nc3ccc4nc(NCCO)sc4c3s2)c1: MET
- COc1ccc(C(=O)Nc2nc3ccc4nc(SC)sc4c3s2)c(OC)c1: NOT MET
- COc1cccc(C(=O)Nc2nc3ccc4nc(NCc5ccccc5)sc4c3s2)c1: NOT MET
- COc1c(C(=O)Nc2nc3ccc4nc(SC)sc4c3s2)cnn1C: NOT MET
- CCN(CC)c1ccc(C(=O)Nc2nc3ccc4nc(SC)sc4c3s2)cc1: NOT MET

Ask | For "COc1cccc(C(=O)Nc2nc3ccc4nc(NCC(C)C)sc4c3s2)c1" , is the recorded IC50 below the cut-off of 5 µM?
Reply | NOT MET

Ask | Below 5 µM on IC50? Entry "CSc1nc2ccc3nc(NC(=O)c4c(C)cnn4C)sc3c2s1"
Reply | NOT MET

Ask | Please state whether IC50 is below 5 µM for "COc1cccc(C(=O)Nc2nc3ccc4nc(NCCN(C)C)sc4c3s2)c1"
Reply | MET

Ask | Regarding "CSc1nc2ccc3nc(NC(=O)CN4C(=O)CCC4=O)sc3c2s1" , kindly confirm whether its IC50 is beneath 5 µM.
Reply | NOT MET

###

# Protocol notes: Inhibition of Bacillus anthracis replicative DNA helicase using Hel-5'FAM:Hel-3'BHQ as substrate assessed as DNA duplex strand unwinding by FRET assay
Test readout: log10 of IC50 (log10 of the value in µM)
Short version: log10 scale, IC50, µM.

* COc1cccc(C(=O)Nc2nc3ccc4nc(SC)sc4c3s2)c1 | 1.10

Ask | Quickly give me recorded log10 of IC50 for "COc1cc(C(=O)Nc2nc3ccc4nc(SC)sc4c3s2)cc(OC)c1OC"
Reply | -0.15

Ask | Let me know recorded log10 of IC50 for "CSc1nc2ccc3nc(NC(=O)c4ccc(N5C(=O)CCC5=O)cc4)sc3c2s1" , thanks.
Reply | 0.11

Ask | Output log10 of IC50 of "CSc1nc2ccc3nc(NC(=O)c4ccc(C#N)cc4)sc3c2s1"
Reply | 1.04

Ask | Please look at this molecule and report its log10 of IC50: "CSc1nc2ccc3nc(NC(=O)c4cccc(N(C)C)c4)sc3c2s1"
Reply | 1.56

Ask | Report measured log10 of IC50; entry is "COc1cc(C(=O)Nc2nc3ccc4nc(NCCN(C)C)sc4c3s2)cc(OC)c1OC"
Reply | -0.70

Ask | Report log10 of IC50, nothing else, for this molecule: "CNc1nc2ccc3nc(NC(=O)c4cc(OC)c(OC)c(OC)c4)sc3c2s1"
Reply | -0.70

###

# Protocol notes: Inhibition of Bacillus anthracis replicative DNA helicase using Hel-5'FAM:Hel-3'BHQ as substrate assessed as DNA duplex strand unwinding by FRET assay
Rule: IC50 below 5 µM gives YES. Equal to or above 5 µM gives NO.

• CSc1nc2ccc3nc(NC(=O)c4ccc(Oc5ccccc5)cc4)sc3c2s1 = NO
• CSc1nc2ccc3nc(NC(=O)COc4ccc(Cl)cc4Cl)sc3c2s1 = NO
• CSc1nc2ccc3nc(NC(=O)c4ccc(C)cc4)sc3c2s1 = NO
• CSc1nc2ccc3nc(NC(=O)c4cc(C)no4)sc3c2s1 = NO
• CSc1nc2ccc3nc(NC(=O)Cc4ccccc4)sc3c2s1 = NO

Ask | Item "CSc1nc2ccc3nc(NC(=O)c4ccc(C(C)(C)C)cc4)sc3c2s1" : IC50 beneath 5 µM, strictly?
Reply | NO

Ask | Check if IC50 falls below 5 µM for "CCN(CC)S(=O)(=O)c1ccc(C(=O)Nc2nc3ccc4nc(SC)sc4c3s2)cc1" .
Reply | NO

Ask | Just wondering, is IC50 of "COc1cc(C(=O)Nc2nc3ccc4nc(NCCN5CCOCC5)sc4c3s2)cc(OC)c1OC" below 5 µM?
Reply | YES

Ask | Please let me know if "CSc1nc2ccc3nc(NC(=O)C4CC4)sc3c2s1" shows IC50 below 5 µM.
Reply | NO

Ask | Bench note: check whether "COC(=O)c1ccc(C(=O)Nc2nc3ccc4nc(SC)sc4c3s2)cc1" shows IC50 below 5 µM
Reply | YES
